I'd appreciate it if you could supply GI50 values for the items below.
system: PC-3; test: NCI tumour cell line growth inhibition, 48 h
Active and inactive are the calls of the source. Rule as the data show it: active = GI50 up to about 1.1 µM and inactive = higher.

Report GI50 for every entry below.
1. COc1ccccc1C1c2cc3c(cc2OC(N2CCOCC2)C1C)OCO3 (stereo not given)
2. N#Cc1c(-c2ccc([N+](=O)[O-])cc2)cc(-c2ccc(Nc3ccnc4cc(C(F)(F)F)ccc34)cc2)nc1N
3. Cc1ccc2c(c1)C=CC(C#N)N2C(=O)Oc1ccccc1 (stereo not given)
4. C=C1c2cc3c(cc2CC12Cc1cc4c(cc1C2=O)CCC4)CCC3 (stereo not given)

[A]
1: 21.5 µM (inactive); 2: 18.9 µM (inactive); 3: 26.3 µM (inactive); 4: > 100 µM (inactive)

GI50 recorded for this compound, "CCO[C@]12CCC[C@H]1[C@@H]1C(=O)c3ccccc3C(=O)C1=C(C)O2" , is > 100 µM (inactive)

----------
test system: HL-60; experiment: NCI tumour cell line growth inhibition, 48 h
Active and inactive are the calls of the source. No stated cut-off is given here; in the data, active = GI50 up to about 1.1 µM and inactive = higher.
Write down one outcome, taken from YES (active), NO (inactive)

Check out these entries, answers already filled in.
| MOLECULE | GROUP |
| --- | --- |
| COc1ccc(-c2csc3c2-n2cccc2C3=O)cc1 | YES |
| O=C1c2ccccc2S(=O)(=O)c2c1cccc2[N+](=O)[O-] | NO |
| Cc1ccc([S+](c2ccccc2)c2cc(C)ccc2C)cc1 (stereo unspecified) | NO |
| CCNc1ncnc2nn[nH]c12 | NO |
| Cc1cn2c(C)csc2c1P(=O)(OC(C)C)OC(C)C | NO |

# ---- query molecule ----
[Q] For "Nc1c(-c2ccccc2)c2ccc([N+](=O)[O-])cc2c(=O)n1-c1cccc(C(=O)O)c1" , which call appears in the assay record?
[A] NO

----------
system: OVCAR-4; assay: NCI tumour cell line growth inhibition, 48 h
Active and inactive are the calls of the source. No stated cut-off is given here; in the data, active = GI50 up to about 1.1 µM and inactive = higher.
OUTCOME_MEASURE: GI50

Examples from the recorded data:
| MOLECULE | GI50 |
| --- | --- |
| COC(O)C(=O)c1c2c(cc3c1CCC3)CCC2 (stereo not given) | > 100 µM (inactive) |
| O=[N+]([O-])/C=C/c1ccc2ccccc2c1 | 13.3 µM (inactive) |
| COC(=O)c1c(O)ccc2c1c1cc3ccccc3cc1n2Cc1cc(OC)cc(OC)c1 | 9.84 µM (inactive) |
| C=C1c2cc3c(cc2CC12Cc1cc4c(cc1C2=O)CCC4)CCC3 (stereo not given) | > 100 µM (inactive) |
| O=C(c1ccc(Cl)c(Cl)c1)N(Cc1cccnc1)C(=S)N(Cc1cccnc1)C(=O)c1ccc(Cl)c(Cl)c1 | 25.8 µM (inactive) |
| COc1ccc(-c2csc3c2-n2cccc2C3=O)cc1 | 2.07 µM (inactive) |
| Nc1n[n+]([O-])c2ccccc2[n+]1[O-] [TIRAPAZAMINE] | > 100 µM (inactive) |
| O=[N+]([O-])C(=C1NCCN1)/C(Cl)=C(\Cl)Br | 46.5 µM (inactive) |

Report GI50 for every entry below.
1. O=C(O)/C=c1/c2ccccc2n2nc3ccccc3c12
2. CC(=O)CCCCO
3. CC(=O)OC1CC[C@@]2(C)C(=CC[C@@H]3[C@@H]2CC[C@]2(C)Nc4c(cnn4-c4ccc(F)cc4)C[C@@H]32)C1 (stereo not given in full)

[A]
1. 22.8 µM (inactive)
2. > 100 µM (inactive)
3. > 53.5 µM (inactive)

----------
tested on: A549; test: NCI tumour cell line growth inhibition, 48 h
Calls of active or inactive are those of the source. Cut-off read from the data, not from the text of the source: active = GI50 up to about 1.1 µM and inactive = higher.
OUTCOME_MEASURE: GI50

Examples from the recorded data:
| COMPOUND | OUTCOME_MEASURE | OBS_VALUE |
| --- | --- | --- |
| CC12CC(=O)C3C(CCC4=CC(=O)CCC43C)C1CC=C2CC(=O)O (configuration not stated) | GI50 | > 100 µM (inactive) |
| CCOC(=O)C(O)(NC(=O)Nc1ccc(F)cc1)C(F)(F)F (configuration not stated) | GI50 | > 100 µM (inactive) |
| O=C1C(Cl)=C(N2CCN(CCOCCO)CC2)C(=O)c2c(O)ccc(O)c21 | GI50 | 2.01 µM (inactive) |
| N#CC(C#N)=Cc1c(O)ccc2ccccc12 | GI50 | 17.1 µM (inactive) |
| Cc1nc(-c2nc(C)c(C(=O)/C=C/c3ccc(N(C)C)cc3)s2)sc1C(=O)/C=C/c1ccc(N(C)C)cc1 | GI50 | 44.2 µM (inactive) |

Report GI50 for every entry below.
1. Cc1ccc(Nc2nc(=O)[nH]c(=O)[nH]2)cc1N
2. CCC(=O)C1=C(OC(C)=O)C2Cc3c(n(C)c4ccccc34)C(C1)N2C (configuration not stated)
3. COc1ccc2c3c1OC1C(=O)C=CC4(O)C(C2)NCC[C@@]314 (some centres not stated)

[A]
["> 100 µM (inactive)", "68.5 µM (inactive)", "4.61 µM (inactive)"]

Report GI50 for every entry below.
1. C=C=C(C(=O)OC)[S+]([O-])c1ccccc1[N+](=O)[O-] (configuration not stated)
2. N=C(N)NNC(=O)CCCCCCCC(=O)NNC(=N)N
3. CC(C)(C)OC(=O)NCC(CNC(=O)OC(C)(C)C)c1nc(C(N)=O)cs1
4. COc1ccc(Nc2nc3cc(C(F)(F)F)ccc3n3cccc23)cc1OC
5. O=C(Cc1nc2ccccc2o1)C(=O)Nc1cccc(C(F)(F)F)c1
6. O=C(c1ccc(Cl)c(Cl)c1)N(Cc1cccnc1)C(=S)N(Cc1cccnc1)C(=O)c1ccc(Cl)c(Cl)c1

[A]
1. > 100 µM (inactive)
2. > 100 µM (inactive)
3. > 100 µM (inactive)
4. 14.1 µM (inactive)
5. > 100 µM (inactive)
6. > 100 µM (inactive)

Report GI50 for every entry below.
1. NCCCCCNOCCCN
2. CO[C@H](C(=O)O[C@H]1C(=O)N2CC[C@@H]3CCC[C@H]1C32C)c1ccccc1 (some centres not stated)
3. O=C(C[N+]12CN3CN(CN(C3)C1)C2)c1ccc(-c2ccccc2)cc1
4. CC(=O)NC(CCCN(Cc1ccccc1)C(=O)NCCCl)C(=O)NCc1ccccc1 (configuration not stated)
5. O=C(Nc1ccc(Cl)c(Cl)c1)C(=O)C(C1OC(=O)c2ccccc21)[N+](=O)[O-] (configuration not stated)

[A]
1: > 100 µM (inactive); 2: > 100 µM (inactive); 3: 30.1 µM (inactive); 4: > 100 µM (inactive); 5: > 100 µM (inactive)

----------
system: EKVX; test: NCI tumour cell line growth inhibition, 48 h
Calls of active or inactive are those of the source. No stated cut-off is given here; in the data, active = GI50 up to about 1.1 µM and inactive = higher. Where a SMILES comes first, the peptide text is derived from it. Bridges are numbered along the chain shown (N, C = ends). The star is where a group is joined. Cbz = O=C(OCc1ccccc1)*
Write down one outcome, taken from class 1 = active, class 0 = inactive

Check out these entries, answers already filled in.
| COMPOUND | GROUP |
| --- | --- |
| CC(=O)NC(CCCCN(Cc1ccccc1)C(=O)N(C)N=O)C(=O)NCc1ccccc1 (centres undefined) | class 0 |
| Cc1ccc(Nc2nc(=O)[nH]c(=O)[nH]2)cc1N | class 0 |
| Oc1cc2cc(-c3ccccc3)[nH]c2c2ccccc12 | class 0 |
| COC(=O)c1c(O)ccc2c1c1cc3ccccc3cc1n2Cc1cc(OC)cc(OC)c1 | class 0 |
| CCCCCCC(=O)C/C(CCC(=O)N(Cc1ccccc1)Cc1ccccc1)=N\Nc1ccc([N+](=O)[O-])cc1[N+](=O)[O-] | class 0 |
| COC(=O)C1CCCCNC(=O)CCC(NC(=O)OCc2ccccc2)C(=O)N1 (stereo not drawn) (Cbz-Glu-Lys-OMe; lactam 1-2; configuration not given here) | class 0 |

[Q] For "N#Cc1c2c(c(Nc3ccc(F)cc3)n3c1nc1ccccc13)CCC2" , which call appears in the assay record?
[A] class 0

[Q] For C=C1c2cc3c(cc2CC12Cc1cc4c(cc1C2=O)CCC4)CCC3 (centres undefined) , which call appears in the assay record?
[A] class 0

[Q] For C[C@]12Cc3cn[nH]c3C(=O)C1CC[C@@H]1C2CC[C@@]2(C)C1CC[C@]2(C)O (some centres undefined) , which call appears in the assay record?
[A] class 0

[Q] For CCc1cccc(C(C)C)c1NC(=O)C(=O)C(CC(=O)Nc1ccc(Cl)c(Cl)c1)C(=O)OC (centres undefined) , which call appears in the assay record?
[A] class 0

[Q] For "CO[C@@]12C[C@@H](CNC(=O)c3cc(Br)c[nH]3)O[C@@H]1NC(=O)N2" , which call appears in the assay record?
[A] class 0

[Q] For CC1(C)C(=O)C2(C#N)CCC1C2 (centres undefined) , which call appears in the assay record?
[A] class 0

[Q] For Cc1ccc(S(=O)(=O)OCCC2CN(C(=O)OCc3ccccc3)C(C)(C)O2)cc1 (centres undefined) , which call appears in the assay record?
[A] class 0

[Q] For "Nn1c(CNc2ccc(-c3nnc(Nc4ccc(Cl)cc4)n3N)cc2)nnc1Nc1ccc(Cl)cc1" , which call appears in the assay record?
[A] class 0

[Q] For COc1cc2c(cc1OC)C(Cl)C(c1ccc(Br)cc1)=C2Cl (centres undefined) , which call appears in the assay record?
[A] class 0

[Q] For Cc1ccc(C2(N3CCOCC3)OC(C)(C)c3cccc4cccc2c34)cc1 (centres undefined) , which call appears in the assay record?
[A] class 0

[Q] For "O=C(Oc1c(I)ccccc1=O)c1ccc([N+](=O)[O-])cc1" , which call appears in the assay record?
[A] class 0
